# ASSAY_EXPLANATION: Metabolic stability in human liver microsomes assessed as compound metabolized after 15 mins
# Format: ADME, Microsome
# RECORDED_CONDITIONS: read-out: Drug metabolism
Let's look at some compounds and their measured metabolised at 0.25 h.
I only need the number, in %, no unit after it.

O=c1n(Cc2nc3nc(Cl)ccc3n2CCCCO)c2cnccc2n1C1CC1; 0
O=c1n(Cc2cc3cc(Cl)ccc3n2CCCN2CCOCC2)c2cnccc2n1C1CC1; 99
CS(=O)(=O)CCCn1c(Cn2c(=O)n(C3COC3)c3ccncc32)cc2cc(Cl)ccc21; 52
O=c1n(Cc2cc3cc(Cl)ccc3n2CCCCO)c2cnccc2n1C1CC1; 49
CS(=O)(=O)CCCn1c(Cn2c(=O)n(C3CC3)c3ccncc32)cc2cc(Cl)ccc21; 18
COc1ccc(-n2c(=O)n(Cc3cc4cc(Cl)ccc4n3CCCC#N)c3cnccc32)c(C)c1; 36
N#CCCCn1c(Cn2c(=O)n(C3CC3)c3ccncc32)nc2nc(Cl)ccc21; 0
CC(C)CCn1c(Cn2c(=O)n(C3CC3)c3ccncc32)nc2nc(Cl)ccc21; 7

In: Please report the recorded metabolised at 0.25 h for `CS(=O)(=O)CCCn1c(Cn2c(=O)n(CC#N)c3ccncc32)cc2cc(Cl)ccc21` .
Out: 66

In: Input `COc1ccc(-n2c(=O)n(Cc3cc4cc(Cl)ccc4n3CCCC#N)c3cnccc32)cc1C`
Out: 33

In: // repeat for `O=c1n(Cc2cc3cc(Cl)ccc3n2CCCCF)c2cnccc2n1C1CC1` and report
Out: 37

In: Then what about the compound `CS(=O)(=O)CCCn1c(Cn2c(=O)n(C3CN(S(C)(=O)=O)C3)c3ccncc32)cc2cc(Cl)ccc21` ?
Out: 15

In: Also `CC(C)CCn1c(Cn2c(=O)n(C3CC3)c3ccncc32)cc2cnccc21` , if possible.
Out: 44

###

# ASSAY_EXPLANATION: Cytotoxicity against human HeLa cells assessed as reduction in cell viability after 3 days by ATPlite assay
Catalogue of CC50 at 72 h values

O=c1n(Cc2nc3cnccc3n2CCCCO)c2cnccc2n1C1CC1; > 100 µM
O=c1n(Cc2nc3nc(Cl)ccc3n2CCCCO)c2cnccc2n1C1CC1; > 50 µM

In: Can you look up the measured CC50 at 72 h of `CS(=O)(=O)CCCn1c(Cn2c(=O)n(C3CNC3)c3ccncc32)cc2cc(Cl)ccc21` for me?
Out: > 50 µM

In: Lookup `CC(C)CCn1c(Cn2c(=O)n(C3CC3)c3ccncc32)nc2cccnc21`
Out: > 100 µM

In: Same read-out for `CC(C)CCn1c(Cn2c(=O)n(C3CC3)c3ccncc32)nc2ccncc21` ?
Out: > 100 µM

In: Would you mind doing `COc1ccc(-n2c(=O)n(Cc3cc4cc(Cl)ccc4n3CCCC#N)c3cnccc32)c(C)c1` as well?
Out: > 50 µM

In: Another compound to look at: `N=C(CCCn1c(Cn2c(=O)n(C3CC3)c3ccncc32)cc2cc(Cl)ccc21)NO`
Out: > 50 µM

In: Try this compound too: `CS(=O)(=O)CCCn1c(Cn2c(=O)n(C3CN(S(C)(=O)=O)C3)c3ccncc32)cc2cc(Cl)ccc21`
Out: > 50 µM

In: And `CS(=O)(=O)c1ccc(-n2c(=O)n(Cc3cc4cc(Cl)ccc4n3CCCC#N)c3cnccc32)cc1` ?
Out: > 50 µM
